- System: MiaPaCa-2 cells
- ASSAY: MiaPaCa-2 CTG proliferation assay (pancreatic cancer)
- Type: cell-based
- CONDITION_NOTES: Homo sapiens, MIA PaCa-2, 120 h, read-out: IC50 MiaPACA2
ATTRIBUTE_MEASURED: pIC50
The value called pIC50 is obtained by taking minus log10 of the concentration in mol/L.

Ask: Reported pIC50, compound C=CC(=O)N1CCN(c2nc(=O)n(-c3c(C)ccnc3C(C)C)c3nc(-c4c(O)cccc4F)c(F)cc23)[C@@H](C)C1 [sotorasib, reference compound] : ____
Reply: 7.31

====

- ASSAY: Plasma protein binding (equilibrium dialysis), human plasma
- Type: in vitro ADME
- CONDITION_NOTES: read-out: PPB human fu
ATTRIBUTE_MEASURED: fraction unbound
// response body must contain only the number

The examples below pair each entry with its known result.
COMPOUND	fraction unbound
C=C(F)C(=O)N1CCC(Oc2cc(O[C@@H](C)[C@@H]3CCCN3C)nc(-c3cc([C@@]4(C)CCCc5sc(N)c(C#N)c54)sn3)n2)CC1	0.004
C=C(F)C(=O)N1CCC(Oc2cc(N3CCN(C)C[C@@H]3C)nc(-c3cc(C4(C)CCCc5sc(N)c(C#N)c54)on3)n2)CC1 (stereo partly drawn)	0.005

Consider now this further compound.
Ask: Fill in: fraction unbound of C=CC(=O)N1[C@@H](C)CN(c2cc(O[C@@H](C)[C@@H]3CCCN3C)nc(-c3cc([C@@]4(C)CCCc5sc(N)c(C#N)c54)no3)n2)C[C@@H]1C is ___
Reply: 0.027

====

- ASSAY: Plasma protein binding (equilibrium dialysis), mouse plasma
- Type: in vitro ADME
- CONDITION_NOTES: read-out: PPB mouse fu
- Procedure: Plasma Protein Binding (PPB) Binding of test compound to plasma was determined using equilibrium dialysis (ED) and quantitative mass spectrometry interfaced with liquid chromatography (LC-MS). […] After incubation, protein was precipitated from aliquots of each chamber and the concentration of test compound in the supernatant of the plasma-containing compartment (cplasma) and of the buffer-containing compartment (Cbuffer) was determined by LC-MS. […]
Listed here: items and their measured fraction unbound.
// return a plain number; no unit text

COMPOUND	ATTRIBUTE_MEASURED	OBSERVED_MEASUREMENT
COC/C=C/C(=O)N1CCN(c2cc(O[C@@H](C)[C@@H]3CCCN3C)nc(-c3cc([C@@]4(C)CCCc5sc(N)c(C#N)c54)on3)n2)CC12CC2 [Ib-16]	fraction unbound	0.002
C=CC(=O)N1CCN(c2cc(O[C@@H](C)[C@@H]3CCCN3C)nc(-c3cc(C4(C)CCCc5sc(N)c(C#N)c54)on3)n2)CC1 (stereo partly drawn) [Ib-6]	fraction unbound	0.014
C=CC(=O)N1[C@@H](C)CN(c2cc(O[C@@H](C)[C@@H]3CCCN3C)nc(-c3cc([C@@]4(C)CCCc5sc(N)c(C#N)c54)no3)n2)C[C@@H]1C [Ic-4]	fraction unbound	0.011

Next:
Ask: Any idea what its fraction unbound is? The compound is C=C(F)C(=O)N1CCN(c2cc(O[C@@H](C)[C@@H]3CCCN3C)nc(-c3cc([C@@]4(C)CCCc5sc(N)c(C#N)c54)on3)n2)[C@H](C)C1 [Ib-10]
Reply: 0.005

====

- Test system: ERK phosphorylation in NCI-H358_Cas9_SOS2
- ASSAY: ERK phosphorylation assay 2 (AlphaLISA SureFire Ultra p-ERK1/2), SOS2 knock-out
- Assay type: cell-based
- CONDITION_NOTES: Homo sapiens, NCI-H358; assay 2 (marked with *); read-out: IC50 H358 pERK
As shown below, each of these compounds has a reported IC50 value.
Please respond with the number in nM and leave the unit unwritten.

Recorded results for 5 compounds are shown here.
COMPOUND	IC50 [nM]
C=C(F)C(=O)N1[C@@H](C)CN(c2nc(-c3cc([C@@]4(C)CCCc5sc(N)c(C#N)c54)on3)nc(O[C@@H](C)[C@@H]3CCCN3C)c2Cl)C[C@@H]1C [Ib-12]	830
C=CC(=O)N1CCN(c2cc(O[C@@H](C)[C@@H]3CCCN3C)nc(-c3cc([C@@]4(C)CCCc5sc(N)c(C#N)c54)no3)n2)[C@H](C)C1 [Ic-2]	3.7
C=CC(=O)N1CCC(Oc2cc(O[C@@H](C)[C@@H]3CCCN3C)nc(-c3cc([C@@]4(C)CCCc5sc(N)c(C#N)c54)sn3)n2)CC1 [Id-6]	1.1
C=CC(=O)N1CCN(c2cc(O[C@@H](C)[C@@H]3CCCN3C)nc(-c3cc(C4(C)CCCc5sc(N)c(C#N)c54)on3)n2)CC1 (stereo partly drawn) [Ib-6]	2
C=CC(=O)N1[C@@H](C)CN(c2cc(O[C@@H](C)[C@@H]3CCCN3C)nc(-c3cc([C@@]4(C)CCCc5sc(N)c(C#N)c54)on3)n2)C[C@@H]1C [Ib-4]	2.4

Ask: Give its IC50 value. Item: C=CC(=O)N1[C@@H](C)CN(c2nc(-c3cc([C@@]4(C)CCCc5sc(N)c(C#N)c54)on3)nc(O[C@@H](C)[C@@H]3CCCN3C)c2Cl)C[C@@H]1C [Ib-9]
Reply: 11.3

Ask: Return reported IC50; argument: C=CC(=O)N1[C@H](C)CN(c2cc(O[C@@H](C)[C@@H]3CCCN3C)nc(-c3cc([C@@]4(C)CCCc5sc(N)c(C#N)c54)on3)n2)C[C@@H]1C [Ib-3]
Reply: 4.1

Ask: Query: IC50; subject: C=C(F)C(=O)N1CCN(c2cc(O[C@@H](C)[C@@H]3CCCN3C)nc(-c3cc(C4(C)CCCc5sc(N)c(C#N)c54)sn3)n2)CC1 (stereo partly drawn) [Id-7]
Reply: 20.5

Ask: I would be grateful if you could share the reported IC50 for C=CC(=O)N1[C@H](C)CN(c2cc(O[C@@H](C)[C@@H]3CCCN3C)nc(-c3cc([C@@]4(C)CCCc5sc(N)c(C#N)c54)sn3)n2)C[C@@H]1C [Id-2] .
Reply: 5.4

====

- SYSTEM_NAME: KRAS G12C::SOS1 protein-protein interaction (Homo sapiens, UniProt P01116, C118S/C51S/C80L/G12C)
- Construct: His6 (N); host or cells: E. coli
- Sequence (P01116 1-169 isoform P01116-2 G12C/C51S/C80L/C118S): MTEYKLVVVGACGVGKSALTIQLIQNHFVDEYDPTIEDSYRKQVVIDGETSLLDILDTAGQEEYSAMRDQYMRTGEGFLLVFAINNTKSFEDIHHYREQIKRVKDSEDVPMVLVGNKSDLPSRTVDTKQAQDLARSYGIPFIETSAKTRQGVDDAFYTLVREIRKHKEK
- ASSAY: KRAS::SOS1 AlphaScreen binding assay
- CONDITION_NOTES: KRAS G12C::SOS1 AlphaScreen
ATTRIBUTE_MEASURED: pIC50
When answering, recall that pIC50 equals minus log10 of the concentration in mol/L, and write that number alone.

COMPOUND	pIC50
C=C(F)C(=O)N1[C@@H](C)CN(c2nc(-c3cc([C@@]4(C)CCCc5sc(N)c(C#N)c54)on3)nc(O[C@@H](C)[C@@H]3CCCN3C)c2Cl)C[C@@H]1C [Ib-12]	7.13
C=CC(=O)N1CCC(Oc2cc(O[C@@H](C)[C@@H]3CCCN3C)nc(-c3cc([C@@]4(C)CCCc5sc(N)c(C#N)c54)on3)n2)CC1 [Ib-7]	8.82
C=CC(=O)N1CCC(Oc2cc(N3CCN(C)C[C@@H]3C)nc(-c3cc(C4(C)CCCc5sc(N)c(C#N)c54)on3)n2)CC1 (stereo partly drawn) [Ib-8]	7.89
COC/C=C/C(=O)N1CCN(c2cc(O[C@@H](C)[C@@H]3CCCN3C)nc(-c3cc(C4(C)CCCc5sc(N)c(C#N)c54)on3)n2)CC1 (stereo partly drawn) [Ib-15]	7.77
C=C(F)C(=O)N1[C@@H](C)CN(c2cc(O[C@@H](C)[C@@H]3CCCN3C)nc(-c3cc([C@@]4(C)CCCc5sc(N)c(C#N)c54)no3)n2)C[C@@H]1C [Ic-8]	7.39

// next item, pIC50 requested
Ask: Looking for the measured pIC50 of C=CC(=O)N1CCN(c2cc(O[C@@H](C)[C@@H]3CCCN3C)nc(-c3cc([C@@]4(C)CCCc5sc(N)c(C#N)c54)no3)n2)[C@H](C)C1 [Ic-2] , can you help?
Reply: 8.70

====

- ASSAY: Plasma protein binding (equilibrium dialysis), serum 10% FCS in PBS
- Type: in vitro ADME
- CONDITION_NOTES: bovine, 10% FCS in PBS (serum), read-out: PPB 10% FCS fu
- Method: Plasma Protein Binding (PPB) Binding of test compound to plasma was determined using equilibrium dialysis (ED) and quantitative mass spectrometry interfaced with liquid chromatography (LC-MS). […] After incubation, protein was precipitated from aliquots of each chamber and the concentration of test compound in the supernatant of the plasma-containing compartment (cplasma) and of the buffer-containing compartment (Cbuffer) was determined by LC-MS. […]
Could you label it Y if measured fraction unbound is 0.1 or higher, and N otherwise?

Solved entries (count: 3):
MOLECULE	GROUP
C=CC(=O)N1[C@@H](C)CN(c2cc(O[C@@H](C)[C@@H]3CCCN3C)nc(-c3cc([C@@]4(C)CCCc5sc(N)c(C#N)c54)sn3)n2)C[C@@H]1C [Id-4]	Y
C=CC(=O)N1[C@H](C)CN(c2cc(O[C@@H](C)[C@@H]3CCCN3C)nc(-c3cc([C@@]4(C)CCCc5sc(N)c(C#N)c54)no3)n2)C[C@@H]1C [Ic-5]	Y
C=CC(=O)N1CCC(Oc2cc(O[C@@H](C)[C@@H]3CCCN3C)nc(-c3cc([C@@]4(C)CCCc5sc(N)c(C#N)c54)on3)n2)CC1 [Ib-7]	Y

Ask: Check this molecule for fraction unbound at or above 0.1: C=C(F)C(=O)N1[C@@H](C)CN(c2nc(-c3cc([C@@]4(C)CCCc5sc(N)c(C#N)c54)on3)nc(O[C@@H](C)[C@@H]3CCCN3C)c2Cl)C[C@@H]1C [Ib-12]
Reply: N

Ask: Identify whether the reported fraction unbound of the following molecule is 0.1 or greater: C=CC(=O)N1[C@H](C)CN(c2cc(O[C@@H](C)[C@@H]3CCCN3C)nc(-c3cc([C@@]4(C)CCCc5sc(N)c(C#N)c54)sn3)n2)C[C@@H]1C [Id-2]
Reply: Y

Ask: Item COC/C=C/C(=O)N1CCN(c2cc(O[C@@H](C)[C@@H]3CCCN3C)nc(-c3cc([C@@]4(C)CCCc5sc(N)c(C#N)c54)on3)n2)CC12CC2 [Ib-16] with fraction unbound of 0.1 or above?
Reply: N

Reference for the values: patent US11945812B2
